- Tested on: HIV-1 integrase catalytic core (disintegration assay)
- EXPERIMENT_NOTES: Compound was tested in vitro to inhibit human immuno virus-1 (HIV-1) using enzymatic disintegration assay.
MEASURE_NAME: IC50 (µM)

sample_smiles=O=C(O)c1ccc2ccc(/C=C/c3ccc(O)cc3)nc2c1O measure_name=IC50 value_qualifier== test_result=4.2
sample_smiles=O=C(O)c1ccc2ccc(/C=C/c3ccccc3)nc2c1O measure_name=IC50 value_qualifier== test_result=3.4
sample_smiles=O=C(O)c1cc(/C=C/c2ccc3ccc(C(=O)O)c(O)c3n2)ccc1O measure_name=IC50 value_qualifier== test_result=2.7
sample_smiles=Oc1cccc2ccc(/C=C/c3ccccc3)nc12 measure_name=IC50 value_qualifier=> test_result=100
